B1: tRNA (parent)
chain: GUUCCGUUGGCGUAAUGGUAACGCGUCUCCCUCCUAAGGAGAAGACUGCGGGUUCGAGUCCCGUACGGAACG

- Variants of: B1
- procedure-summary: yeast fitness relative to wild type (ratio to wild type); higher = fitter; tRNA-Arg(CCU), competitive growth, 37 C, YPD
Variants at the floor of the assay were thinned out.
reported-metric: yeast fitness

Below are worked cases with known answers.
INSERT INTO results (variant_name, result) VALUES
  ('A20U A21U C34G G63C', '≤ 0.5'),
  ('U2G G25C C27G C34U U35A G38A U59A', '≤ 0.5'),
  ('A14U C30G U32G', '≤ 0.5'),
  ('C31U G48C U59A G67C A69C', '≤ 0.5'),
  ('C4U U8A U13C U35C C46A', '≤ 0.5');

Prompt: Dear colleague, please send me the reported yeast fitness for G6C U8A G51A when you can.
Response: ≤ 0.5

Hello, the source for this data is the RNAGym collection of RNA variant scans (doi:10.1126/science.aae0568), in case you need it.
